# System: IGROV-1
# method: NCI tumour cell line growth inhibition, 48 h
Active and inactive are the calls of the source. Cut-off read from the data, not from the text of the source: active = GI50 up to about 1.1 µM and inactive = higher.
Return exactly one item of label 1 = active, label 0 = inactive

O=C1Nc2c(Cl)cc(Cl)cc2/C1=N/N=C/c1ccccc1O ... label 0

Consider now this further compound.
Prompt: For this compound, state the assay outcome: Cc1ccc([N+](=O)[O-])cc1S(=O)(=O)Nc1ccc(C2=NOC(c3cccs3)C2)cc1 (stereo not drawn)
Response: label 0

====

# Test system: HOP-18
# method: NCI tumour cell line growth inhibition, 48 h
Active and inactive are the calls of the source. Rule as the data show it: active = GI50 up to about 1.1 µM and inactive = higher.
Return exactly one item of TRUE for active, FALSE for inactive

C/C(=N\NC(=N)N)C(CN1CCOCC1)C(c1ccccc1)c1c(O)c2ccccc2oc1=O (centres undefined) ... FALSE

Consider now this further molecule.
Prompt: For this molecule, state the assay outcome: `O=C(/C=C/c1ccc(O)cc1)c1cc(Cl)ccc1O`
Response: FALSE

====

# System: M14
# method: NCI tumour cell line growth inhibition, 48 h
Active and inactive are the calls of the source. No stated cut-off is given here; in the data, active = GI50 up to about 1.1 µM and inactive = higher.
outcome.measure: GI50

Please review the following examples before continuing.
CC(C)(CN1CCOCC1)C(=O)/C=C/c1ccc(/C=C/C(=O)C(C)(C)CN2CCOCC2)cc1 ... 1.69 µM (inactive)
O=C1N[C@H]2C(=O)c3c(Br)sc(Br)c3[C@H]2O1 ... 3.08 µM (inactive)

Prompt: Tell me the measured GI50 of `O=[N+]([O-])c1ccc(-c2nn3c(C45CC6CC(CC(C6)C4)C5)nnc3s2)c(Cl)c1` , please.
Response: > 100 µM (inactive)

Prompt: Tell me the measured GI50 of O=C(NNC(=O)c1ccccc1S)c1ccccc1S [BIS(THIOSALICYL)HYDRAZIDE] , please.
Response: 10.3 µM (inactive)

Prompt: Tell me the measured GI50 of `Cc1ccc(NC(=O)CSc2nnc(Cc3ccccc3)o2)c(C)c1` , please.
Response: > 100 µM (inactive)

Prompt: Tell me the measured GI50 of `O=C1Nc2ccccc2C1=Nc1ccc(S(=O)(=O)Nc2nccs2)cc1` , please.
Response: > 100 µM (inactive)

Prompt: Tell me the measured GI50 of `CC1=C/C(=N/N2C(=O)/C(=C/c3ccc(Cl)cc3)N=C2c2ccccc2)CC(C)(C)C1` , please.
Response: > 100 µM (inactive)

====

# Test system: K562
# method: NCI tumour cell line growth inhibition, 48 h
Calls of active or inactive are those of the source. Rule as the data show it: active = GI50 up to about 1.1 µM and inactive = higher.
List of GI50 values.

CC1=NNC(=S)NCCCN2CCN(CCCNC(=S)NN=C(C)C=NNC(=S)NCCCN3CCN(CCCNC(=S)NN=C1)CC3)CC2 ... > 100 µM (inactive)
COc1ccc2c(c1)C(=O)/C(=C/c1ccccc1)C2 ... 29 µM (inactive)
COC(=O)c1ccc(C(=O)OC)c2nc3cc(Cl)ccc3nc12 ... > 100 µM (inactive)
COC(=O)C1(C)CCCC2(C)c3cc(OC)ccc3C(=O)C(Br)C12 (stereo not given) ... 3.68 µM (inactive)

Let us examine a further case.
Prompt: Tell me the measured GI50 of COc1ccc2c(c1)CCCN1CCc3cc(OC)c(OC)cc3C21 (stereo not given) , please.
Response: 61.7 µM (inactive)

====

List of GI50 values.
# System: PC-3
# method: NCI tumour cell line growth inhibition, 48 h
Active and inactive are the calls of the source. No stated cut-off is given here; in the data, active = GI50 up to about 1.1 µM and inactive = higher.

Please review the following examples before continuing.
CN(Cc1cnc2nc(N)nc(N)c2n1)c1ccc(C(=O)NC(CCC(=O)O)C(=O)O)cc1C(F)(F)F (centres undefined) ... < 0.01 µM (active)
O=C1N[C@H]2C(=O)c3c(Br)sc(Br)c3[C@H]2O1 ... 4.95 µM (inactive)
C/C(=C\CBr)CCC(Br)C(C)(C)Br (centres undefined) ... > 100 µM (inactive)
CN(C)c1n2c3cc([N+](=O)[O-])ccc3[n+]3c(N(C)C)n4ccccc4c3c2c2cccc[n+]12.[O-][Cl+3]([O-])([O-])[O-].[O-][Cl+3]([O-])([O-])[O-] ... > 100 µM (inactive)
COc1ccc2c(c1)CCCN1CCc3cc(OC)c(OC)cc3C21 (centres undefined) ... > 100 µM (inactive)

Prompt: // lookup GI50 | system=PC-3 | key= `CC(=O)c1ccc(NCc2cc(O)ccc2O)cc1`
Response: 15.2 µM (inactive)

Prompt: // lookup GI50 | system=PC-3 | key= CC(=O)NC1C(OCc2ccccc2)OC(CO)C(O)C1OC(C)C(=O)NC(C(=O)NC(CCC(=O)NCCCCNc1c2ccccc2nc2cccc([N+](=O)[O-])c12)C(N)=O)C(C)C (centres undefined)
Response: 2.67 µM (inactive)

Prompt: // lookup GI50 | system=PC-3 | key= `COc1ccc(C(=O)/C=C2\c3ccccc3C(=O)N2C)cc1`
Response: 89.1 µM (inactive)

Prompt: // lookup GI50 | system=PC-3 | key= `COc1ccc(CN2C(=O)C(=O)N(C)C2=O)c2ccccc12`
Response: > 10 µM (inactive)
